TARGET OF ASSAY: T1, PUF4 RNA-binding domain (Saccharomyces cerevisiae, UniProt P25339 537-888)
T1 sequence: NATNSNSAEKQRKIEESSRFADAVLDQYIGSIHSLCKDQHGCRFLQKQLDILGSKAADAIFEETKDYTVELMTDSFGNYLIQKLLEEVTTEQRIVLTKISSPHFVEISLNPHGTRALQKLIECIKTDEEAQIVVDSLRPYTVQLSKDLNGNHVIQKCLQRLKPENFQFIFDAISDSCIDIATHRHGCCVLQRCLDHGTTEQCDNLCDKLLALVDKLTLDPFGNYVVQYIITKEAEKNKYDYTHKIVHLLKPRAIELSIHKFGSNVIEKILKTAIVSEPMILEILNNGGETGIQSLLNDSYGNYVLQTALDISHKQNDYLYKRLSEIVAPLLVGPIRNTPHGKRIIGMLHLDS
TEST: Mg; RNA-MaP; 20 mM Na-HEPES pH 7.4, 30 mM KOAc, 0.75 mM MgCl2, 0.1% Tween-20, 5% glycerol, 0.1 mg/mL BSA, 2 mM DTT; 25 C; 0.0125-409.6 nM protein
EXPERIMENTAL PARAMETERS: tags: N-His6-TEV cleaved; C-SNAP kept, Cy3B-labelled; label: tethered on chip by stalled RNA polymerase
ASSAY METRIC: pKd
# pKd: negative log10 of molar concentration; output just the value

Recorded pKd, per entry:
BINDER: Ic_S2_P4E.1_K4.1_C4.1_H4.1_A4.1_[T5C]_[A6C]_[T7A]_F4.1_[T8C]_[A9G]_T4.1 (ssRNA) RNA: UUUGAUUAAUAUGAUAUCGUUCUUUCUUGUACCACGUUCUUUCUCGAUAUCAUAUUAAUCUUU
READOUT NUMBER: 6.57
--
BINDER: UCUCUUUGUACACAUUCUCUU (ssRNA) [Ic_S1_P4E.1_K4.1_C4.1_H4.1_A4.1_[T5C]_[T7C]_F4.1_[T8A]_[A9T]_T4.1]
READOUT NUMBER: 7.65
--
BINDER: UCUCUUUCUUGUAAAUAUCUCUCUU (ssRNA) [Id_iii_S1_P3E.8_K3.4_C3.3_H3.1_A3.2_F3.1_T3.2_[A10C]]
READOUT NUMBER: 7.56
--
BINDER: Ic_S2_P5E.1_K5.1_C5.1_H5.1_A5.1_[T5A]_[A7T]_F5.1_[T9C]_[A10G]_T5.1 (ssRNA) RNA: UUUGAUUAAUAUGAUAUCGUUCUUUCUUGUAAUUUCGUUCUUUCUCGAUAUCAUAUUAAUCUUU
READOUT NUMBER: 6.96
--
BINDER: Ic_S4_P3E.1_K3.1_C3.1_H3.1_A3.1_[T5G]_[A6C]_F3.1_[A8C]_T3.1 (ssRNA) RNA: UUUGACAACUGAUCGUUCUUUCUUGUAGCUCUUCUUUCUCGAUCAGUUGUCUUU
READOUT NUMBER: 6.72
--
BINDER: UCUCUUUGUAUUCUUCUCUU (ssRNA) [Ic_S1_P3E.1_K3.1_C3.1_H3.1_A3.1_[A6T]_F3.1_[T7C]_[A8T]_T3.1]
READOUT NUMBER: 7.49
--
BINDER: UCUCUUUGUAAACGCUCUCUU (ssRNA) [Ic_S1_P4E.1_K4.1_C4.1_H4.1_A4.1_[T5A]_[T7C]_F4.1_[T8G]_[A9C]_T4.1]
READOUT NUMBER: 6.08
--
BINDER: UCUCUUCGUAUAUAUUAGUUCUCUU (ssRNA) [Id_ii_S1_P4E.3_K4.2_C4.2_[T-1G]_H4.2_A4.1_F4.1_T4.2]
READOUT NUMBER: 8.08

What does the record list as pKd for UCUCUUCGUAUAUUCUCUCUU (ssRNA) [Ib_S1_P4E.1_K4.1_C4.1_H4.1_[T1C]_A4.1_F4.1_[A9C]_T4.1] ?
5.94

How about Ic_S4_P4E.1_K4.1_C4.1_H4.1_A4.1_[T5C]_[A6G]_[T7G]_F4.1_[T8C]_[A9T]_T4.1 (ssRNA) RNA: UUUGACAACUGAUCGUUCUUUCUUGUACGGCUUUCUUUCUCGAUCAGUUGUCUUU ?
6.31

Note, next up: Ic_S2_P4E.1_K4.1_C4.1_H4.1_A4.1_[T5C]_[A6G]_F4.1_[T8C]_T4.1 (ssRNA) RNA: UUUGAUUAAUAUGAUAUCGUUCUUUCUUGUACGUCAUUCUUUCUCGAUAUCAUAUUAAUCUUU
6.93

Next binder: Id_iii_S2_P5E.7_K5.3_C5.3_H5.3_A5.1_F5.1_T5.2_[A12T] (ssRNA) RNA: UUUGAUUAAUAUGAUAUCGUUCUUUCUUCUACACUUAUUAUUUUCUUUCUCGAUAUCAUAUUAAUCUUU
5.67

Request: Id_ii_S4_P3E.2_K3.1_C3.2_[C-2A]_[T-1A]_H3.1_A3.1_F3.1_T3.2_[T9A]_[A10C] (ssRNA) RNA: UUUGACAACUGAUCGUUCUUUCUAAUGUAUAUAACUUCUUUCUCGAUCAGUUGUCUUU
8.03

Field entry: Ic_S4_P5E.1_K5.1_C5.1_H5.1_A5.1_[T5C]_[T6A]_F5.1_[T9G]_[A10G]_T5.1 (ssRNA) RNA: UUUGACAACUGAUCGUUCUUUCUUGUACAAUGGUUCUUUCUCGAUCAGUUGUCUUU
7.77

Also Ib_S4_P5E.1_K5.1_C5.1_H5.1_A5.1_[A7T]_F5.1_[T8G]_T5.1 (ssRNA) RNA: UUUGACAACUGAUCGUUCUUUCUUGUAUUUGUAUUCUUUCUCGAUCAGUUGUCUUU , if possible.
8.43

// same read-out, input: ACAAACUGUAUUAUUAUCCACAAAC (ssRNA) [Ie_S3_P5E.1_K5.1_C5.1_H5.1_A5.1_F5.1_[+10TCC]_T5.1]
8.23
